# targetOfAssay: streptavidin (Streptomyces avidinii, UniProt P22629)
# Sequence (P22629 25-183, species assumed): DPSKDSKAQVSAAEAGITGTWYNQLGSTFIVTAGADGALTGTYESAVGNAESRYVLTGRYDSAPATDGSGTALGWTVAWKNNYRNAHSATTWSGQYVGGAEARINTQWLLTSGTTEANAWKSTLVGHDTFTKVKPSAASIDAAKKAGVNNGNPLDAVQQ
# testDetails: Surface Plasmon Resonance (Biacore X100) of synthesized peptides on immobilized streptavidin
# Type: binding
# runConditions: KD of peptide-streptavidin complex, SPR; restated in text from Table 15
propertyLabel: Kd

INSERT INTO measurements (substance, val) VALUES
  ('H-ADYLAEYHGG-OH [NH2-ADYLAEYHGG-COOH]', '~96 µM');

Now look at this one.
Consider the substance shown here: H-RDPAPAWAHGGG-NH2 [NH2-RDPAPAWAHGGG-amide] What is its recorded Kd?
~4.66 µM
